// values below are reported MIC
# Test system: E. coli GC 6465
# measurement-protocol: MIC, broth microdilution
# setup-conditions: Escherichia coli, GC6465, read-out: MINIMAL INHIBITORY CONCENTRATION MIC, Mouse Serum
assay-readout: MIC (µg/mL)

INSERT INTO measurements (record_smiles, assay_readout, unit_abbreviation, result_modifier, value_reported) VALUES
  ('Cc1cc(C)cc(C(=O)OCOC(=O)N(CC(=O)Nc2cc(N(C)C)c3c(c2O)C(=O)C2=C(O)[C@]4(O)C(=O)C(C(N)=O)=C(O)[C@@H](N(C)C)[C@@H]4C[C@@H]2C3)C(C)(C)C)c1', 'MIC', 'µg/mL', '=', 4),
  ('CCC(=O)OCOC(=O)N(CC(=O)Nc1cc(N(C)C)c2c(c1O)C(=O)C1=C(O)[C@]3(O)C(=O)C(C(N)=O)=C(O)[C@@H](N(C)C)[C@@H]3C[C@@H]1C2)C(C)(C)C', 'MIC', 'µg/mL', '=', 2),
  ('CN(C)c1cc(NC(=O)CN(C(=O)OCOC(=O)C2CCCCC2)C(C)(C)C)c(O)c2c1C[C@H]1C[C@H]3[C@H](N(C)C)C(O)=C(C(N)=O)C(=O)[C@@]3(O)C(O)=C1C2=O', 'MIC', 'µg/mL', '=', 2),
  ('CC(C)CC(=O)OCOC(=O)N(CC(=O)Nc1cc(N(C)C)c2c(c1O)C(=O)C1=C(O)[C@]3(O)C(=O)C(C(N)=O)=C(O)[C@@H](N(C)C)[C@@H]3C[C@@H]1C2)C(C)(C)C', 'MIC', 'µg/mL', '=', 4),
  ('CCCCOC(=O)N(CC(=O)Nc1cc(N(C)C)c2c(c1O)C(=O)C1=C(O)[C@]3(O)C(=O)C(C(N)=O)=C(O)[C@@H](N(C)C)[C@@H]3C[C@@H]1C2)C(C)(C)C', 'MIC', 'µg/mL', '>', 64);

====

// values below are reported ED50
# Tested on: Staph. aureus Smith
# measurement-protocol: In vivo activity (oral, iv; ED50) against Staph. aureus Smith in mice
# setup-conditions: Staphylococcus aureus, in Mus musculus, iv, read-out: ED50 SIV (Staph aureus Smith)
assay-readout: ED50 (mg/kg)

INSERT INTO assay_data (record_smiles, value_reported) VALUES
  ('CCCN(CC(=O)Nc1cc(N(C)C)c2c(c1O)C(=O)C1=C(O)[C@]3(O)C(=O)C(C(N)=O)=C(O)[C@@H](N(C)C)[C@@H]3C[C@@H]1C2)C(=O)OCOC(=O)CC1CCCC1', 0.39),
  ('Cc1ccc(C(=O)OCOC(=O)N(CC(=O)Nc2cc(N(C)C)c3c(c2O)C(=O)C2=C(O)[C@]4(O)C(=O)C(C(N)=O)=C(O)[C@@H](N(C)C)[C@@H]4C[C@@H]2C3)C(C)(C)C)cc1', 1.2),
  ('CCCCN(CC(=O)Nc1cc(N(C)C)c2c(c1O)C(=O)C1=C(O)[C@]3(O)C(=O)C(C(N)=O)=C(O)[C@@H](N(C)C)[C@@H]3C[C@@H]1C2)C(=O)OCOC(=O)CC(C)(C)C', 0.84),
  ('CCCN(CC(=O)Nc1cc(N(C)C)c2c(c1O)C(=O)C1=C(O)[C@]3(O)C(=O)C(C(N)=O)=C(O)[C@@H](N(C)C)[C@@H]3C[C@@H]1C2)C(=O)OCOC(=O)c1ccc(C(C)(C)C)cc1', 0.6),
  ('CCC(C)(C)C(=O)OCOC(=O)N(CC(=O)Nc1cc(N(C)C)c2c(c1O)C(=O)C1=C(O)[C@]3(O)C(=O)C(C(N)=O)=C(O)[C@@H](N(C)C)[C@@H]3C[C@@H]1C2)C(C)(C)C', 0.75);
